B1: VH:VL chains; a variant is named by its letters at X, in order (parent)
chain 1: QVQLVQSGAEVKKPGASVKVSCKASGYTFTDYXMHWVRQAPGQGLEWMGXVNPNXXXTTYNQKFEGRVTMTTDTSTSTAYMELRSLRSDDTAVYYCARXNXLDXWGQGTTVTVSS
chain 2: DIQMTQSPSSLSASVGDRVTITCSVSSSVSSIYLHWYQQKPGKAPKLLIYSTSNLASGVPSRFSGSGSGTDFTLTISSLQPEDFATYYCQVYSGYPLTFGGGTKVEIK

# Variants of: B1
# methodNotes: yeast display scFab, FACS + sequencing
# appliedConditions: with MET
The other results are listed elsewhere or left out. The hit rate among all sequences tested is not known here.
measurementName: antigen binding call

Some entries whose results are on file:
mutantId | antigen binding call
FKGEGDVA | no binding
VEARNAGA | no binding
VEGRGDVF | no binding
VEAGSDGV | no binding
SRGGDDVA | no binding
FRRRGSAA | binds
SRGGSALA | binds
SRRRGSAA | binds

# next variant below
# input variant: VKRRSSLA ; wanted: its antigen binding call binds

Numbers sourced from the emibetuzumab library of Makowski et al. (2022).
